Where these numbers come from: ChEMBL document CHEMBL1133492

MEASURED TARGET: Trifunctional purine biosynthetic protein adenosine-3 (Homo sapiens)
MEASUREMENT DESCRIPTION: In vitro inhibitory activity against Glycinamide ribonucleotide transformylase (GAR Tfase+GAR) following 3 min pre-incubation at 250 uM concentration
Provide the reported inhibition of each item.
Quick note: give the figure in %, leave out the unit.

[ask] Entry COC(=O)c1ccc(CN(CCCc2c(N)nc(N)nc2O)c2cc(F)c([N+](=O)[O-])cc2[N+](=O)[O-])cc1 : reported inhibition = ?
[reply] 64

[ask] Queued: COC(=O)c1ccc(CN(CCCc2c(N)nc(N)nc2O)c2cc(F)cc(F)c2[N+](=O)[O-])cc1
[reply] 25

[ask] Queued: COC(=O)c1ccc(CN(CCc2c(N)nc(N)nc2O)c2cc(F)c([N+](=O)[O-])cc2[N+](=O)[O-])cc1
[reply] 66

[ask] Queued: COC(=O)c1ccc(CN(CCCc2c(N)nc(N)nc2O)c2cc(F)c(F)cc2[N+](=O)[O-])cc1
[reply] 68

[ask] Queued: COC(=O)c1ccc(CN(CCc2c(N)nc(N)nc2O)c2cc(F)ccc2[N+](=O)[O-])cc1
[reply] 81

[ask] Queued: COC(=O)c1ccc(CN(CCc2c(N)nc(N)nc2O)c2ccc([N+](=O)[O-])c(F)c2F)cc1
[reply] 79

[ask] Queued: COC(=O)c1ccc(CN(CCCc2c(N)nc(N)nc2O)c2cc(F)ccc2[N+](=O)[O-])cc1
[reply] 75

[ask] Queued: COC(=O)c1ccc(CN(CCc2c(N)nc(N)nc2O)c2cc(F)cc(F)c2[N+](=O)[O-])cc1
[reply] 32
